% Inhibition for assorted compounds
# Tested on: P. falciparum stage V gametocytes
# Design: BacTiter-Glo ATP luminescence viability of purified stage V gametocytes in 384-well plates, per cent inhibition versus DMSO
# measurement_parameters: 48 h, 5 µM; inhibitor
Among all 13,000 compounds or so, about 3,200 (25%) showed an effect of 50% or more. This is one part of the list.
I only need the number, in %, no unit after it.

[in] Please report the recorded % Inhibition for COc1ccc(Nc2nccc(N3CCC(NC(=O)C(C)c4ccc(Cl)cc4)CC3)n2)cc1 (centres unmarked) [TCMDC-133633] .
[out] 29.63

[in] Recorded % Inhibition for Cc1cc(C2CCN(CCCCNC(=O)c3ccc(-c4ccc(C(F)(F)F)cc4)cc3)CC2)c(C)cc1OCCOC1CCCCO1 (centres unmarked) [TCMDC-138802] , please?
[out] -43.58

[in] Could you tell me which % Inhibition is on file for COc1ccc2c(c1)c(C1CCN(CCCCNC(=O)c3ccc(-c4ccc(C(F)(F)F)cc4)cc3)CC1)cn2C(C)C [TCMDC-138801] ?
[out] 16.06

[in] Bench note: what % Inhibition did O=C(NCCc1ccccc1)N(Cc1ccc(-c2cccc(CN3CCNCC3)c2)cc1)C1CCN(Cc2ccccc2)CC1 [TCMDC-139635] show?
[out] 105.4

[in] Which % Inhibition is listed for CC1CCN(CCNC(=O)c2ccc3c(=O)n(Cc4ccc(Cl)cc4)c(=S)[nH]c3c2)CC1 [TCMDC-125693] ?
[out] -28.57

###

# Tested on: P. falciparum stage V gametocytes
# Parameters: BacTiter-Glo ATP luminescence viability of purified stage V gametocytes in 384-well plates, per cent inhibition versus DMSO
# measurement_parameters: 48 h, 5 µM; inhibitor
About 3,200 (25%) of roughly 13,000 compounds showed an effect of 50% or more. The list shows a part of the results.
% Inhibition below 60% gives Not fulfilled; % Inhibition at or above it gives Fulfilled.

Solved entries (count: 5):
[in] # bool: % Inhibition of `COc1ccc(-c2cc(C(=O)N[C@@H](CC3CCCCC3)C(=O)NCCN3CCCC3)ccc2O)cc1` >= 60%
[out] Not fulfilled

[in] Would you say `Oc1ccc(CCCNc2nc(NCc3cccc4ccccc34)nc(NC3CCNCC3)n2)cc1` shows % Inhibition at minimum 60%?
[out] Not fulfilled

[in] Could you tell me if the measured % Inhibition of `COc1ccc2ncn(-c3ccc(C(N)=O)c(OCc4ccccc4C(F)(F)F)c3)c2c1` reaches 60% or more?
[out] Not fulfilled

[in] # check: % Inhibition of `Oc1ccc(CCCNc2nc(NCc3ccccc3-c3ccccc3)nc(N3CCNCC3)n2)cc1` is greater than or equal to 60%
[out] Not fulfilled

[in] Reported % Inhibition at or above 60%? `C[C@@H](CC1CCCCC1)OC(=O)N[C@H]1CCN(C#N)C1`
[out] Not fulfilled

Attention now turns to another entry.
[in] Could you please find out whether `C[C@@H](Oc1cc(-n2cnc3ccc(OCC4CCN(S(C)(=O)=O)CC4)cc32)sc1C(N)=O)c1ccccc1C(F)(F)F` has % Inhibition that meets 60% or exceeds it?
[out] Not fulfilled

###

# Test system: P. falciparum stage V gametocytes
# Design: BacTiter-Glo ATP luminescence viability of purified stage V gametocytes in 384-well plates, per cent inhibition versus DMSO
# measurement_parameters: 48 h, 5 µM; inhibitor
Among all 13,000 compounds or so, about 3,200 (25%) showed an effect of 50% or more. The list shows a part of the results.
Entries annotated with measured % Inhibition
State just the number; it will be interpreted in %.

Consider the worked cases shown below.
[in] Quick one: % Inhibition of `O=C(CN(c1cccc(C(F)(F)F)c1)S(=O)(=O)c1ccc(Cl)cc1)NCCC(c1ccccc1)c1ccccc1` ?
[out] 5.637

[in] Quick one: % Inhibition of CCCCCC(C)N=C(Nc1ccc(C#N)cc1O)Nc1ccccc1Br (stereo not drawn) ?
[out] -25.57

Next:
[in] So what's the measured % Inhibition for this one? `CC(C)(C)OC(=O)NCCc1cccc(-c2c[nH]c3ncc(-c4cccc(NS(C)(=O)=O)c4)cc23)c1`
[out] 27.56

###

// reported % Inhibition for each item listed
# System: P. falciparum stage V gametocytes
# Design: BacTiter-Glo ATP luminescence viability of purified stage V gametocytes in 384-well plates, per cent inhibition versus DMSO
# measurement_parameters: 48 h, 5 µM; inhibitor
The whole screen tested about 13,000 compounds, of which about 3,200 (25%) showed an effect of 50% or more. Some of the results follow.
Note: unit % is implicit; provide only the numeric part.

Below, 2 molecules whose answers are already recorded.
[in] // query % Inhibition value for entry `CC(=O)Nc1ccc(CN2CCN(C(c3ccc(F)cc3)c3ccc(F)cc3)CC2)cc1`
[out] 16.43

[in] Requested read-out: % Inhibition. Entry: `COc1ccc(CCN(C)CCCOc2ccc(NC(=O)c3cccc4c(=O)c5ccccc5[nH]c34)cc2)cc1OC`
[out] 43.65

New cases:
[in] # get_value(readout='% Inhibition', item= `COc1ccc(CCN(C)CCCN2CCC(NC(=O)c3cccc4c(=O)c5ccccc5sc34)CC2)cc1OC` )
[out] 103.2

[in] // query % Inhibition value for entry `COc1cc(OCCCN(C)Cc2ccc(OC)c(OC)c2)ccc1NC(=O)c1cccc2c(=O)c3cccc(F)c3[nH]c12`
[out] 16.5

[in] Any idea what % Inhibition was measured for `COc1ccc(CCN(C)CCc2ccc(NC(=O)c3cccc4c(=O)c5ccccc5sc34)cc2)cc1` ?
[out] 45.76

[in] Data request, read-out % Inhibition, for `COc1ccccc1N1CCN(Cc2cc(C(C)C)c(C)cc2O)CC1`
[out] -1.392

[in] Dear colleague, I am looking for the recorded % Inhibition of the following molecule: `Cc1cc(CN2C(=O)C(c3ccccc3)(c3ccccc3)N=C2N)c(C(F)(F)F)o1`
[out] 6.087

###

# Tested on: P. falciparum stage V gametocytes
# Set-up: BacTiter-Glo ATP luminescence viability of purified stage V gametocytes in 384-well plates, per cent inhibition versus DMSO
# measurement_parameters: 48 h, 5 µM; inhibitor
In all, about 13,000 compounds went through this assay and about 3,200 (25%) showed an effect of 50% or more. The list shows a part of the results.
Measured % Inhibition, listed per entry for reference.
Could you give me the number in %? Just the number is fine.

Answered examples (5):
[in] # returns recorded % Inhibition (system: P. falciparum stage V gametocytes) for `Cc1cccc(OC2CCN(c3ncc(C(=O)NCCCN4CCCC4=O)cc3Cl)CC2)c1`
[out] 81.53

[in] Request: % Inhibition, test system P. falciparum stage V gametocytes, entry `COc1cc(C(=O)Nc2ccc3nc(N4CCN(C)CC4)cc(C)c3c2)cc(OC)c1OC`
[out] 10.02

[in] Form: Entry = `CCOC(=O)CC[C@H](NC(=O)c1ccc(NS(=O)(=O)c2ccc(-c3cnc(N)[nH]c3=O)cc2)cc1)C(=O)OCC` | System = P. falciparum stage V gametocytes | % Inhibition = ____
[out] 3.183

[in] Checklist item: % Inhibition tested on P. falciparum stage V gametocytes, entry CN(C)c1ccc(CN2CCC(CNC(=O)c3cc(-c4ccccc4Cl)cs3)C2)cc1 (centres unmarked) , value?
[out] 49.98

[in] Requested read-out % Inhibition, target or system P. falciparum stage V gametocytes, entry `CC[C@H](NC(=O)c1c(CC2CCN(CC(C)=O)CC2)c(-c2ccccc2)nc2ccccc12)c1ccccc1`
[out] 44.22

More entries:
[in] I'm curious: which % Inhibition was measured for CC(C)c1ccc(CN2CCCCC(NC(=O)c3cc(-c4ccccc4Cl)cs3)C2)cc1 (centres unmarked) tested on P. falciparum stage V gametocytes?
[out] -27.61

###

# Tested on: P. falciparum stage V gametocytes
# Parameters: BacTiter-Glo ATP luminescence viability of purified stage V gametocytes in 384-well plates, per cent inhibition versus DMSO
# measurement_parameters: 48 h, 5 µM; inhibitor
The campaign covered roughly 13,000 compounds. About 3,200 (25%) showed an effect of 50% or more. This is one part of the list.
result_type: % Inhibition (%)
A number alone suffices; assume %.

Here are 5 compounds together with their reported answers.
[in] GET /values?readout=% Inhibition&item= CCCCCCCN1CC[C@@H](CCCc2ccnc3ccc(OCCCCNC(N)=O)cc23)[C@@H](CC)C1 [TCMDC-139835]
[out] 110.9

[in] So what's the measured % Inhibition for this one? O=C(/C=C/c1ccc(Cl)c(Cl)c1)NCCCCCN1CCC(NC(=S)Nc2ccc(Cl)cc2Cl)CC1 [TCMDC-135902]
[out] 24.59

[in] Recorded % Inhibition of Cc1cc(OCCCN2CCN(CCN3CCOCC3)CC2)ccc1NC(=O)COc1ccc(Cl)cc1C(=O)c1cc(Cl)cc(C#N)c1 [TCMDC-135999] , please.
[out] 30.59

[in] Quick one: % Inhibition of Cc1nnc(NC(=O)c2cn(-c3ccccc3)nc2-c2ccccc2C)o1 [TCMDC-125040] ?
[out] 22.18

[in] Sample Cc1c(C)n(C2CCCC2)c2ncnc(OC3CCN(CC(=O)NC4CC4)CC3)c12 [TCMDC-133310] — what was its % Inhibition?
[out] -5.87

More entries:
[in] Request the reported % Inhibition associated with CC1CCCN(S(=O)(=O)c2cc(Br)cc3c2N(C(=O)C2CC2)CC3)C1 (stereo not drawn) [TCMDC-123872]
[out] 16.45

[in] Suppose we examine the compound N#Cc1cccc(NC(=O)Nc2ccc(-c3ccc(-c4nc5ccc(C(F)(F)F)cc5[nH]4)cc3)cc2)c1 [TCMDC-133190] ; what % Inhibition value has been reported?
[out] -5.798

[in] Value lookup for % Inhibition; key = O=C(Nc1ccc(-c2nc3ccccc3[nH]2)cc1)C1CCCN(C2CCC2)C1 (stereo not drawn) [TCMDC-124687]
[out] -67.58

[in] For the compound shown here, Cn1c(NC2=NC3(c4ccccn4)N=C(Nc4nc5ccccc5n4C)NC3(c3ccccn3)N2)nc2ccccc21 (stereo not drawn) [TCMDC-139096] , give the reported % Inhibition.
[out] 50.49

[in] Would you kindly share the measured % Inhibition for Oc1ccc(Nc2nc(NCc3ccccc3)c3ccccc3n2)cc1 [TCMDC-125641] ?
[out] -47.6

[in] Value lookup for % Inhibition; key = CCNc1cc(C)nc(Nc2ccc(F)cc2)n1 [TCMDC-134008]
[out] 39.4

[in] I have this compound here, CN(C)CCCOc1ccccc1CN1CC[C@H](NC(=O)c2ccc(Cl)c(Cl)c2)C1 [TCMDC-140310] , and I need its recorded % Inhibition.
[out] -1.9
